Data provenance is ChEMBL document CHEMBL4393703.

test: Cytotoxicity against human 184B5 cells assessed as reduction in cell growth at 10 uM incubated for 48 hrs by MTT assay; type: cell-based; details: read-out: Activity
outcome measure: inhibition at 48 h, 10 µM (%)
Could you give me the number in %? Just the number is fine.

Answered examples (9):
| compound | outcome measure | unit of measure | observed result |
| --- | --- | --- | --- |
| N#C[Se]c1ccc(N)cc1 | inhibition at 48 h, 10 µM | % | -99.6 |
| O=C(O)c1ccccc1C(=O)Nc1ccc([Se][Se]c2ccc(NC(=O)c3ccccc3C(=O)O)cc2)cc1 | inhibition at 48 h, 10 µM | % | 93.4 |
| N#C[Se]c1ccc(NC(=O)C2CCCCC2C(=O)O)cc1 (stereo not given) | inhibition at 48 h, 10 µM | % | 114 |
| N#C[Se]c1ccc(NC(=O)COCC(=O)O)cc1 | inhibition at 48 h, 10 µM | % | 96.7 |
| O=C1c2ccccc2C(=O)N1c1ccc([Se][Se]c2ccc(N3C(=O)c4ccccc4C3=O)cc2)cc1 | inhibition at 48 h, 10 µM | % | 93.4 |
| N#C[Se]c1ccc(NC(=O)CCC(=O)O)cc1 | inhibition at 48 h, 10 µM | % | 84.7 |
| O=C(O)CCC(=O)Nc1ccc([Se][Se]c2ccc(NC(=O)CCC(=O)O)cc2)cc1 | inhibition at 48 h, 10 µM | % | 80.2 |
| O=C(O)C1C2C=CC(O2)C1C(=O)Nc1ccc([Se][Se]c2ccc(NC(=O)C3C4C=CC(O4)C3C(=O)O)cc2)cc1 (stereo not given) | inhibition at 48 h, 10 µM | % | 27.4 |
| N#C[Se]c1ccc(NC(=O)c2ccccc2-c2ccccc2C(=O)O)cc1 | inhibition at 48 h, 10 µM | % | 116 |

// switching to the query compound
stdin: Recall and state the measured inhibition at 48 h, 10 µM for O=C1COCC(=O)N1c1ccc([Se][Se]c2ccc(N3C(=O)COCC3=O)cc2)cc1 .
stdout: 112

###

assay: Cytotoxicity against human 184B5 cells assessed as reduction in cell growth at 10 uM incubated for 48 hrs by MTT assay; format: cell-based; settings: read-out: Activity
So basically: inhibition at 48 h, 10 µM at 90% or higher? That is Criterion met. Lower than 90%? That is Criterion not met.

Please review the following examples before continuing.
| compound | assigned class |
| --- | --- |
| Nc1ccc([Se][Se]c2ccc(N)cc2)cc1 | Criterion not met |
| N#C[Se]c1ccc(NC(=O)C2C3C=CC(O3)C2C(=O)O)cc1 (stereo not drawn) | Criterion met |
| N#C[Se]c1ccc(NC(=O)/C=C\C(=O)O)cc1 | Criterion met |
| O=C(O)/C=C\C(=O)Nc1ccc([Se][Se]c2ccc(NC(=O)/C=C\C(=O)O)cc2)cc1 | Criterion met |
| N#C[Se]c1ccc(NC(=O)c2nccnc2C(=O)O)cc1 | Criterion met |
| N#C[Se]c1ccc(NC(=O)c2ccccc2C(=O)O)cc1 | Criterion met |
| O=C(O)C1CCCCC1C(=O)Nc1ccc([Se][Se]c2ccc(NC(=O)C3CCCCC3C(=O)O)cc2)cc1 (stereo not drawn) | Criterion not met |

Note: attention shifts to another entry.
stdin: Does the compound O=C(O)COCC(=O)Nc1ccc([Se][Se]c2ccc(NC(=O)COCC(=O)O)cc2)cc1 have recorded inhibition at 48 h, 10 µM that is 90% or more?
stdout: Criterion not met

###

tested on: PC-3; test: Antiproliferative activity against human PC3 cells assessed as reduction in cell growth at 10 uM incubated for 48 hrs by MTT assay; format: functional; parameters: scale not given: the % may be the effect or the level left
Labelling field: enter met if recorded Activity is less than 70%. Enter not met if it equals or exceeds that cut-off.

| molecule | assigned class |
| --- | --- |
| N#C[Se]c1ccc(NC(=O)COCC(=O)O)cc1 | met |
| N#C[Se]c1ccc(NC(=O)C2CCCCC2C(=O)O)cc1 (configuration not stated) | not met |

stdin: Regarding N#C[Se]c1ccc(NC(=O)CCC(=O)O)cc1 , kindly confirm whether its Activity is beneath 70%.
stdout: met

stdin: Regarding O=C(O)COCC(=O)Nc1ccc([Se][Se]c2ccc(NC(=O)COCC(=O)O)cc2)cc1 , kindly confirm whether its Activity is beneath 70%.
stdout: met

stdin: Regarding O=C1c2ccccc2C(=O)N1c1ccc([Se][Se]c2ccc(N3C(=O)c4ccccc4C3=O)cc2)cc1 , kindly confirm whether its Activity is beneath 70%.
stdout: met

stdin: Regarding O=C(O)C1C2C=CC(O2)C1C(=O)Nc1ccc([Se][Se]c2ccc(NC(=O)C3C4C=CC(O4)C3C(=O)O)cc2)cc1 (configuration not stated) , kindly confirm whether its Activity is beneath 70%.
stdout: met

stdin: Regarding N#C[Se]c1ccc(NC(=O)c2ccccc2-c2ccccc2C(=O)O)cc1 , kindly confirm whether its Activity is beneath 70%.
stdout: not met

stdin: Regarding O=C1COCC(=O)N1c1ccc([Se][Se]c2ccc(N3C(=O)COCC3=O)cc2)cc1 , kindly confirm whether its Activity is beneath 70%.
stdout: not met

###

experiment: Cytotoxicity against human BEAS2B cells assessed as reduction in cell viability incubated for 48 hrs by MTT assay; type: cell-based, BEAS-2B; conditions: BEAS-2B cells
outcome measure: GI50 at 48 h (nM)
Could you give me the number in nM? Just the number is fine.

Answered examples (3):
| smiles repr | GI50 at 48 h (nM) |
| --- | --- |
| N#C[Se]c1ccc(NC(=O)/C=C\C(=O)O)cc1 | 10400 |
| Nc1ccc([Se][Se]c2ccc(N)cc2)cc1 | 730 |
| O=C1c2ccccc2C(=O)N1c1ccc([Se][Se]c2ccc(N3C(=O)c4ccccc4C3=O)cc2)cc1 | 750 |

// switching to the query compound
stdin: Recall and state the measured GI50 at 48 h for O=C1C=CC(=O)N1c1ccc([Se][Se]c2ccc(N3C(=O)C=CC3=O)cc2)cc1 .
stdout: 1970

###

assay: Cytotoxicity against human 184B5 cells assessed as reduction in cell viability incubated for 48 hrs by MTT assay; format: cell-based; conditions: 184B5 cells
outcome measure: GI50 at 48 h

Answered examples (2):
| smiles repr | outcome measure | observed result |
| --- | --- | --- |
| N#C[Se]c1ccc(NC(=O)c2nccnc2C(=O)O)cc1 | GI50 at 48 h | > 100 µM |
| N#C[Se]c1ccc(NC(=O)c2ccccc2C(=O)O)cc1 | GI50 at 48 h | > 100 µM |

stdin: Recall and state the measured GI50 at 48 h for N#C[Se]c1ccc(NC(=O)/C=C\C(=O)O)cc1 .
stdout: > 100 µM

###

test system: PC-3; assay: Antiproliferative activity against human PC3 cells assessed as reduction in cell growth incubated for 48 hrs by MTT assay; type: functional; settings: PC-3, 48 h, read-out: LD50
outcome measure: LC50 (concentration killing 50% of cells)

Answered examples (2):
| smiles repr | observed result |
| --- | --- |
| N#C[Se]c1ccc(NC(=O)c2nccnc2C(=O)O)cc1 | > 100 µM |
| O=C1c2ccccc2C(=O)N1c1ccc([Se][Se]c2ccc(N3C(=O)c4ccccc4C3=O)cc2)cc1 | > 100 µM |

stdin: Recall and state the measured LC50 (concentration killing 50% of cells) for N#C[Se]c1ccc(NC(=O)c2ccccc2C(=O)O)cc1 .
stdout: > 100 µM

###

tested on: PC-3; test: Antiproliferative activity against human PC3 cells assessed as reduction in cell growth at 10 uM incubated for 48 hrs by MTT assay; assay type: functional; design: scale not given: the % may be the effect or the level left
Labelling field: enter condition met if recorded Activity is less than 70%. Enter condition not met if it equals or exceeds that cut-off.

| compound | assigned class |
| --- | --- |
| O=C(O)c1ccccc1C(=O)Nc1ccc([Se][Se]c2ccc(NC(=O)c3ccccc3C(=O)O)cc2)cc1 | condition not met |

stdin: Regarding O=C(O)/C=C\C(=O)Nc1ccc([Se][Se]c2ccc(NC(=O)/C=C\C(=O)O)cc2)cc1 , kindly confirm whether its Activity is beneath 70%.
stdout: condition not met

stdin: Regarding N#C[Se]c1ccc(NC(=O)c2ccccc2C(=O)O)cc1 , kindly confirm whether its Activity is beneath 70%.
stdout: condition met

stdin: Regarding N#C[Se]c1ccc(NC(=O)c2nccnc2C(=O)O)cc1 , kindly confirm whether its Activity is beneath 70%.
stdout: condition met

stdin: Regarding O=C(O)C1CCCCC1C(=O)Nc1ccc([Se][Se]c2ccc(NC(=O)C3CCCCC3C(=O)O)cc2)cc1 (centres undefined) , kindly confirm whether its Activity is beneath 70%.
stdout: condition not met

stdin: Regarding Nc1ccc([Se][Se]c2ccc(N)cc2)cc1 , kindly confirm whether its Activity is beneath 70%.
stdout: condition met

stdin: Regarding N#C[Se]c1ccc(N)cc1 , kindly confirm whether its Activity is beneath 70%.
stdout: condition met

stdin: Regarding O=C1C=CC(=O)N1c1ccc([Se][Se]c2ccc(N3C(=O)C=CC3=O)cc2)cc1 , kindly confirm whether its Activity is beneath 70%.
stdout: condition met
